run-description: in vivo
study-conditions: mouse, ip
readout-kind: TD50 at 0.25 hr
Report as: number unit

Query: I have this molecule here, CCC(CC(N)=O)c1ccc(C(F)(F)F)cc1 (stereo not drawn) [Compound AA, 3-(4-Trifluoromethylphenyl)-pentanamide] , and I need its recorded TD50 at 0.25 hr.
Response: 142 mg/kg

Query: Then what about the molecule C[C@H](CC(N)=O)c1ccc(OC(F)(F)F)cc1 (single isomer, unassigned) [Compound BX] ?
Response: 104 mg/kg

Query: Then what about the molecule C[C@@H](CC(N)=O)c1ccc(OC(F)(F)F)cc1 (single isomer, unassigned) [BY] ?
Response: 104 mg/kg

====

System: mice
run-description: Minimal motor impairment (MID50), mice i.p.
study-conditions: mice i.p.; 100 mg/kg @ 0.5 hr
readout-kind: MID50, fraction of animals

Query: Requested read-out MID50, fraction of animals, target or system mice, entry CC(O)(CC(N)=O)c1cccc(C(F)(F)F)c1 (racemic)
Response: 3/8 @ 0.5 hr,

Query: Then what about the compound CC(CC(N)=O)c1cccc(OC(F)(F)F)c1 (centres unmarked) ?
Response: 8/8 @0.50 hr,

Query: Then what about the compound `CNC(=O)CC(C)(C)c1ccc(Cl)cc1` ?
Response: 2/8 @0.5 hr

Query: Then what about the compound CC(O)(CC(N)=O)c1cccc(OC(F)(F)F)c1 (racemic) ?
Response: 1/8 @ 0.50 hr,

Query: Then what about the compound CC(CC(N)=O)c1cccc(C(F)(F)F)c1 (centres unmarked) [Compound G, 3-[3-(trifluoromethyl)-phenyl]butyramide] ?
Response: 7/8 @0.5 hr

Query: Then what about the compound CC(CC(=O)N(C)C)c1ccc(OC(F)(F)F)cc1 (centres unmarked) ?
Response: 4/8 @ 0.5 hrs,

Query: Then what about the compound C[C@H](CC(N)=O)c1ccccc1 [Compound C, (R)-3-Phenylbutyramide] ?
Response: 1/8 @0.5 hr

Query: Then what about the compound CC(CC(N)=O)c1ccccc1OC(F)(F)F (centres unmarked) ?
Response: 5/8 @

====

Tested on: mice
run-description: Minimal motor impairment (MID50), mice i.p.
study-conditions: mice, i.p.
Please go through the items and note down their MID50 (median minimal motor impairment dose).
Write the value in mg/kg as a bare number.

Query: I have this molecule here, CC(CC(N)=O)c1ccc(OC(F)(F)F)cc1 (racemic) , and I need its recorded MID50 (median minimal motor impairment dose).
Response: 158.98

Query: Then what about the molecule CC(CC(N)=O)c1ccc(C(F)(F)F)cc1 (centres unmarked) [F, 3-[4-(trifluoromethyl)-phenyl]butyramide] ?
Response: 208.37

Query: Then what about the molecule CC(C)(CC(N)=O)c1ccc(Cl)cc1 [Compound A, 3-(4-Chlorophenyl)-3-methylbutyramide] ?
Response: 107.87

====

System: mice
run-description: Subcutaneous Metrazol Seizure threshold (s.c. MET) test, mice i.p.
Format: in vivo
study-conditions: mice i.p.; 100 mg/kg @ 0.5 hr
readout-kind: s.c. MET, fraction of animals

Query: I have this compound here, NC(=O)CC(c1ccc(F)cc1)C1CC1 (centres unmarked) [Y] , and I need its recorded s.c. MET, fraction of animals.
Response: 2/5 @0.5 hrs,

Query: Then what about the compound CC(O)(CC(N)=O)c1cccc(C(F)(F)F)c1 (racemic) [CE] ?
Response: 1/1 @ 0.5 hr,

Query: Then what about the compound CC(CC(N)=O)c1cccc(C(F)(F)F)c1 (centres unmarked) [Compound G, 3-[3-(trifluoromethyl)-phenyl]butyramide] ?
Response: 1/1 @0.5

Query: Then what about the compound CC(CC(N)=O)c1cccc(OC(F)(F)F)c1 (centres unmarked) [I] ?
Response: 1/1 @0.5,

Query: Then what about the compound CC(O)(CC(N)=O)c1cccc(OC(F)(F)F)c1 (racemic) [CD] ?
Response: 1/1 @ 0.5,

====

Please go through the items and note down their 6 Hz (32 mA), fraction of animals.
Tested on: mice
run-description: 6 Hz (minimal clonic seizure) model, mice i.p.
Format: in vivo
study-conditions: mice i.p.; 50 mg/kg @ 0.25 hr

Query: I have this compound here, CC[C@H](NC(=O)[C@@H]1C[C@H]1c1ccccc1)C(N)=O (mixture of isomers) [Compound Q-1] , and I need its recorded 6 Hz (32 mA), fraction of animals.
Response: 1/4 @0.25

Query: Then what about the compound Cc1ccc(C(C)CC(N)=O)cn1 (racemic) [CH] ?
Response: 1/4, 1/4

Query: Then what about the compound CC(CC(=O)N1CCOCC1)c1ccc(OC(F)(F)F)cc1 (stereo not shown) [BI] ?
Response: 2/4

Query: Then what about the compound CC(CC(N)=O)c1cccc(OC(F)(F)F)c1 (stereo not shown) [I] ?
Response: 3/4

====

Test system: CYP2C19, CYP2D6, CYP2A6, CYP2C9
run-description: In vitro human CYP-450 study, Ki values over the enzymes
Format: in vitro ADME
study-conditions: range over the enzymes, not assigned to single isoforms
readout-kind: Ki

Query: I have this compound here, CC(CC(N)=O)c1ccc(OC(F)(F)F)cc1 (racemic) [Compound H] , and I need its recorded Ki.
Response: 29 to 174 µM

====

Please go through the items and note down their TD50.
run-description: in vivo
study-conditions: mouse, ip

Query: I have this compound here, CC(CC(N)=O)c1ccc(C(F)(F)F)cc1 (stereo not drawn) [F, 3-[4-(trifluoromethyl)-phenyl]butyramide] , and I need its recorded TD50.
Response: > 200 mg/kg

Query: Then what about the compound CC(CC(N)=O)c1ccc(OC(F)(F)F)cc1 (racemic) ?
Response: 159 mg/kg

Query: Then what about the compound CC(C)(CC(N)=O)c1ccc(Cl)cc1 [Compound A, 3-(4-Chlorophenyl)-3-methylbutyramide] ?
Response: 108 mg/kg

====

Test system: C3A hepatocyte cells
run-description: ACTIVTox LDH release assay
Assay type: cell-based
study-conditions: at 100 μM; C3A hepatocyte cells; value below 1.75 = no cyto- or hepatotoxic activity
Please go through the items and note down their LDH release, mean fold control.

Query: I have this compound here, CC(CC(N)=O)c1ccc(C(F)(F)F)cc1 (stereo not shown) [F, 3-[4-(trifluoromethyl)-phenyl]butyramide] , and I need its recorded LDH release, mean fold control.
Response: 1.47

Query: Then what about the compound CC(C)(CC(N)=O)c1ccc(Cl)cc1 [Compound A, 3-(4-Chlorophenyl)-3-methylbutyramide] ?
Response: 1.05

Query: Then what about the compound CC(CC(N)=O)c1cccc(OC(F)(F)F)c1 (stereo not shown) [I] ?
Response: 1.03

Query: Then what about the compound CC(CC(N)=O)c1ccc(OC(F)(F)F)cc1 (racemic) [Compound H] ?
Response: 1.32

====

Please go through the items and note down their responders at 600 mg/kg.
Test system: rats
run-description: Pilocarpine-induced Status Epilepticus in Rats (prevention; intervention @ 30 min)
study-conditions: Rattus norvegicus, 0.5 h, read-out: Intervention @ 30 min, Protection
Write the value in % as a bare number.

Query: Requested read-out responders at 600 mg/kg, target or system rats, entry NC(=O)CC(c1ccc2c(c1)OCCO2)C1CC1 (stereo not shown)
Response: 75

Query: Then what about the molecule CC(CC(N)=O)c1ccc2c(c1)OCO2 (stereo not shown) [L, 3-(3,4-methylenedioxy-phenyl)butyramide] ?
Response: 29

Query: Then what about the molecule COc1ccc(C(C)CC(N)=O)cc1Cl (stereo not shown) [J, 3-(3-chloro-4-methoxy-phenyl)butyramide] ?
Response: 38

Query: Then what about the molecule CC(CC(N)=O)c1ccc2c(c1)OCCO2 (stereo not shown) [K, 3-(3,4-ethylenedioxy-phenyl)butyramide] ?
Response: 38
